- Tested on: MKN45
- experiment: MTT cell viability after iridium complex treatment, with or without light (photodynamic cancer cell killing)
- Format: cell-based
- assayConditions: light 1 sun, 3 J/cm^2, read-out: IC50 (hv+)
- Protocol: After seeding 1.5×10^4 cells in a 96-well plate, the cells were cultured overnight at 37° C. under 5% carbon dioxide conditions. […] Cell viability was measured using the MTT (tetrazolium salt (3-(4,5-dimethylthiazol-2-yl)-2,5-diphenyltetrazolium bromide)) assay. MTT reagent was added to each well and cultured for 4 hours, and then the formazan crystals produced in the surviving cells were dissolved in DMSO, followed by measurement of the absorbance at 570 nm. […]
Below: a set of entries, each annotated with reported pIC50.
Just the number, please; pIC50 means minus log10 of the concentration in mol/L.

q: So what does the record say about pIC50 for [Cl-].c1ccc(-c2ccc3ccccc3n2)[c]([Ir+][c]2ccccc2-c2ccc3ccccc3n2)c1.c1ccc(-c2ccccn2)nc1 [TIr3] ?
a: 6.26

q: Please do the same for Cc1cc(-c2sc3ccccc3[c]2[Ir]([O]C(=O)c2ncccc2OCCCN2CCOCC2)[c]2c(-c3cc(C)c4ccccc4n3)sc3ccccc23)nc2ccccc12 [Example B2] as well.
a: 6.07
